Tested on: N. gonorrhoeae WHO Q
Assay: Liquid broth MIC in Fastidious broth
Settings: Neisseria gonorrhoeae, read-out: Minimum Inhibitory Concentration (MIC), N. gonorrhoeae WHO Q
Please provide measured MIC for the entries that follow.

compound="Cn1cccc(C(=O)N[C@@H](C(=O)N[C@H]2Cc3cccc(C(=O)O)c3OB2O)c2ccc(P(=O)(O)O)cc2)c1=O (single isomer, unassigned)" observedresult="1 to 2 µg/mL"
compound="O=C(O)c1cccc2c1OB(O)[C@@H](NC(=O)[C@@H](NC(=O)c1cnc3n(c1=O)CCS3)c1ccc(P(=O)(O)O)cc1)C2 (single isomer, unassigned)" observedresult="16 to 32 µg/mL"
compound="O=C(O)c1cccc2c1OB(O)[C@@H](NC(=O)C(NC(=O)C(F)(F)F)c1ccc(P(=O)(O)O)cc1)C2 (stereo partly drawn)" observedresult="16 to 32 µg/mL"
compound="CS(=O)(=O)N1CCN(C(=O)N[C@@H](C(=O)N[C@H]2Cc3cccc(C(=O)O)c3OB2O)c2ccc(P(=O)(O)O)cc2)C1=O (single isomer, unassigned)" observedresult="< 1 µg/mL"
compound="O=C(NCCCN1CCN(C(=O)NC(C(=O)N[C@H]2Cc3ccc(F)c(C(=O)O)c3OB2O)c2cc(F)c(O)c(O)c2Cl)C(=O)C1=O)Nc1cccnc1 (stereo partly drawn)" observedresult="> 64 µg/mL"

We now examine a further compound.
Give measured MIC for O=C(CN1CCN(C(=O)NC(C(=O)N[C@H]2Cc3ccc(F)c(C(=O)O)c3OB2O)c2cc(F)c(O)c(O)c2Cl)C(=O)C1=O)Nc1ccncc1 (stereo partly drawn) (N. gonorrhoeae WHO Q).
16 to 32 µg/mL
